Reported pIC50 values are given for each entry in this list.
# system: human FLT3 (Homo sapiens)
# Construct: a construct expressing the human FLT3 (564-993) with an amino terminal GST tag; host or cells: Sf9 insect cells (baculovirus)
# Sequence (P36888 564-993): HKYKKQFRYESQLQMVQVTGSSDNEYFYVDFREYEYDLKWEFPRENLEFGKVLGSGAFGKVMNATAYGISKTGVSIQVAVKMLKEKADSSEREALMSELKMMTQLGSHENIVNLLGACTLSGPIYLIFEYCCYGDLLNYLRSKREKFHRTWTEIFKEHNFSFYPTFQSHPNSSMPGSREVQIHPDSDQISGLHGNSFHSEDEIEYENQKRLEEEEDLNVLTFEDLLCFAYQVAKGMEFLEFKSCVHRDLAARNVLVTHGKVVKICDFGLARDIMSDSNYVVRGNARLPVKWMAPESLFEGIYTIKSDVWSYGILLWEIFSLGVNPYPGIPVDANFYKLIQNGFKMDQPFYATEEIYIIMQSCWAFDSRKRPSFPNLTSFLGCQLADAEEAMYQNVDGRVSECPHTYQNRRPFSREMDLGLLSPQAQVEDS
# run.description: FLT3 kinase assay (DELFIA enzyme inhibition)
# Type: biochemical
pIC50: −log10 of the molar value.

Example entries and their recorded answers appear below.
> print(dat)
                                   compound  experimental.readout  value.reported
1  NC(=O)c1nc(-c2c(F)cccc2F)oc1Nc1ccc(C(=O)NCCO)cc1 [Example U-16]                 pIC50          > 5.00
2  CN(C)C(=O)c1ccc(Nc2oc(-c3c(F)cccc3F)nc2C(N)=O)cc1 [Example Q-20]                 pIC50          > 5.00
3  NC(=O)c1nc(-c2c(F)cccc2F)oc1-c1ccc(OCCN2CCC[C@H]2CO)cc1 [Example S-5]                 pIC50          > 4.00
4  NC(=O)c1nc(-c2c(F)cccc2F)oc1-c1ccccn1 [Example F-2]                 pIC50          > 4.00
5  NC(=O)c1nc(-c2c(F)cccc2F)oc1-c1ccc(OCC(O)CN2CCOCC2)cc1 (stereo not shown) [Example T-2]                 pIC50          > 5.00
6  COc1ccc(-c2oc(-c3c[nH]c4ccccc34)nc2C(N)=O)cc1 [Example E-3]                 pIC50          > 4.00

Recorded pIC50 of NC(=O)c1nc(-c2c(F)cccc2Cl)oc1-c1ccc(N2CCNCC2)cc1 [Example G-5] , please.
> 5.00
